Where do the numbers come from? From the kinase profiling compilation of Christmann-Franck et al. (2016).

target: SRMS (human); experiment: KINOMEscan competition binding; settings: compound 10.0 µM
So basically: is kinase still bound, per cent of control under 80%? Then fulfilled. Not under? Then not fulfilled.

[[record]]
smiles_repr = "Cc1n[nH]c2ccc(-c3cncc(OC[C@@H](N)Cc4c[nH]c5ccccc45)c3)cc12"
assigned_class = "not fulfilled"

[[record]]
smiles_repr = "O=c1cc(N2CCOCC2)oc2c(-c3cccc4c3sc3ccccc34)cccc12"
assigned_class = "fulfilled"

[[record]]
smiles_repr = "CNC(=O)c1ccc(Nc2cc(Nc3ccccc3S(=O)(=O)C(C)C)c3cc[nH]c3n2)nc1"
assigned_class = "not fulfilled"


Exercise: is_below(kinase still bound, per cent of control, 80%) for "CCN1CCN(C(=O)Cc2ccc(Nc3ncc(F)c(Nc4ccc(C(=O)Nc5ccccc5Cl)cc4)n3)cc2)CC1" ?
Key: fulfilled

Exercise: is_below(kinase still bound, per cent of control, 80%) for "COCC(=O)NC/C=C/c1ccc2ncnc(Nc3ccc(Oc4ccc(C)nc4)c(C)c3)c2c1" ?
Key: fulfilled

Exercise: is_below(kinase still bound, per cent of control, 80%) for "C=CC(=O)Nc1cc(-n2c(=O)ccc3cnc4ccc(-c5cn[nH]c5)cc4c32)ccc1C" ?
Key: fulfilled

---

target: IRAK1 (human); assay: KINOMEscan competition binding; conditions: compound 10.0 µM
// values below are reported kinase still bound, per cent of control
Report the figure in % without appending any unit label.

[[record]]
smiles_repr = "N#CCNC(=O)c1ccc(-c2ccnc(Nc3ccc(N4CCOCC4)cc3)n2)cc1"
readout_type = "kinase still bound, per cent of control"
measured = 1.3

[[record]]
smiles_repr = "NC(=O)Nc1cc(-c2cccc(F)c2)sc1C(=O)N[C@@H]1CCCNC1"
readout_type = "kinase still bound, per cent of control"
measured = 0

[[record]]
smiles_repr = "O=C1NC(=O)/C(=C/c2ccc3nccc(-c4ccncc4)c3c2)S1"
readout_type = "kinase still bound, per cent of control"
measured = 0.25

[[record]]
smiles_repr = "CCN(CC)CCCCNc1ncc2c(n1)N(C)C(=O)N(c1c(Cl)c(OC)cc(OC)c1Cl)C2"
readout_type = "kinase still bound, per cent of control"
measured = 100

[[record]]
smiles_repr = "COc1cc2ncn(-c3cc(OCc4ccccc4C(F)(F)F)c(C(N)=O)s3)c2cc1OC"
readout_type = "kinase still bound, per cent of control"
measured = 54


Exercise: Given the compound "COCC(=O)NC/C=C/c1ccc2ncnc(Nc3ccc(Oc4ccc(C)nc4)c(C)c3)c2c1" , write its reported kinase still bound, per cent of control.
Key: 100

Exercise: Given the compound "COc1cc(C(=O)N2CCC(N3CCN(C)CC3)CC2)ccc1Nc1ncc2c(n1)N(C)c1ccccc1C(=O)N2C" , write its reported kinase still bound, per cent of control.
Key: 100

---

biological target: AKT1 (human); assay: KINOMEscan competition binding; details: compound 10.0 µM
// values below are reported kinase still bound, per cent of control
Report the figure in % without appending any unit label.

See these solved cases before continuing.
[[record]]
smiles_repr = "COCC(=O)NC/C=C/c1ccc2ncnc(Nc3ccc(Oc4ccc(C)nc4)c(C)c3)c2c1"
measured = 100

[[record]]
smiles_repr = "COc1cc(N2CCN(C)CC2)ccc1Nc1ncc2c(n1)N(C)c1ccccc1C(=O)N2C"
measured = 100

[[record]]
smiles_repr = "COc1cc2ncnc(-n3nc(-c4ccccn4)nc3N)c2cc1OC"
measured = 100

[[record]]
smiles_repr = "O=C(Nc1cccc(Nc2ncc(Br)c(NCCc3cnc[nH]3)n2)c1)N1CCCC1"
measured = 100

[[record]]
smiles_repr = "C=CC(=O)Nc1cc(-n2c(=O)ccc3cnc4ccc(-c5cn[nH]c5)cc4c32)ccc1C"
measured = 89


Exercise: Given the compound "COc1ccc(N(C(=O)Oc2c(C)cccc2C)c2ccnc(Nc3ccc(N4CCN(C)CC4)cc3)n2)c(OC)c1" , write its reported kinase still bound, per cent of control.
Key: 100

Exercise: Given the compound "COc1cc(C(=O)N2CCC(N3CCN(C)CC3)CC2)ccc1Nc1ncc2c(n1)N(C)c1ccccc1C(=O)N2C" , write its reported kinase still bound, per cent of control.
Key: 79
